# system.tested: BCL1 soluble IgM (idiotype-bearing IgM purified from the serum of a mouse carrying the BCL1 B-cell lymphoma) (mouse)
# test: RIA competition: peptide against 125I B1 IgG on BCL1 IgM coated on plastic
Bridge positions count the residues as written; N and C are the ends. Ends that are not written are not given here.
outcome.measure: pIC50
Numbers only, as −log10 of the molar value.

ADGACRNPWC (disulfide 5-10 (inferred)) [synthetic peptide S (selected from the Smith library, oxidized/cyclized)]; 3.70

Next binder, please.
Asked: What does the record list as pIC50 for SVWRWLPYDKYE [synthetic peptide D (selected from the Doorbar library)] ?
Given back: 4.22

Hey, just so you know, these numbers are from patent US20100105876A1.
